- Tested system: KRas/Son of Sevenless Homolog 1 (Homo sapiens, UniProt P01116+Q07889)
- Sequence (P01116 whole entry G12D): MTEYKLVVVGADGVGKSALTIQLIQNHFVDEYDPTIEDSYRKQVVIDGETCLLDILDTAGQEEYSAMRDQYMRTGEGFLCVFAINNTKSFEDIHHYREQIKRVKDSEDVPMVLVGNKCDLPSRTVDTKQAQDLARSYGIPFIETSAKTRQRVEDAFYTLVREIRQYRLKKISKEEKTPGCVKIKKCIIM
- Sequence (Q07889 whole entry): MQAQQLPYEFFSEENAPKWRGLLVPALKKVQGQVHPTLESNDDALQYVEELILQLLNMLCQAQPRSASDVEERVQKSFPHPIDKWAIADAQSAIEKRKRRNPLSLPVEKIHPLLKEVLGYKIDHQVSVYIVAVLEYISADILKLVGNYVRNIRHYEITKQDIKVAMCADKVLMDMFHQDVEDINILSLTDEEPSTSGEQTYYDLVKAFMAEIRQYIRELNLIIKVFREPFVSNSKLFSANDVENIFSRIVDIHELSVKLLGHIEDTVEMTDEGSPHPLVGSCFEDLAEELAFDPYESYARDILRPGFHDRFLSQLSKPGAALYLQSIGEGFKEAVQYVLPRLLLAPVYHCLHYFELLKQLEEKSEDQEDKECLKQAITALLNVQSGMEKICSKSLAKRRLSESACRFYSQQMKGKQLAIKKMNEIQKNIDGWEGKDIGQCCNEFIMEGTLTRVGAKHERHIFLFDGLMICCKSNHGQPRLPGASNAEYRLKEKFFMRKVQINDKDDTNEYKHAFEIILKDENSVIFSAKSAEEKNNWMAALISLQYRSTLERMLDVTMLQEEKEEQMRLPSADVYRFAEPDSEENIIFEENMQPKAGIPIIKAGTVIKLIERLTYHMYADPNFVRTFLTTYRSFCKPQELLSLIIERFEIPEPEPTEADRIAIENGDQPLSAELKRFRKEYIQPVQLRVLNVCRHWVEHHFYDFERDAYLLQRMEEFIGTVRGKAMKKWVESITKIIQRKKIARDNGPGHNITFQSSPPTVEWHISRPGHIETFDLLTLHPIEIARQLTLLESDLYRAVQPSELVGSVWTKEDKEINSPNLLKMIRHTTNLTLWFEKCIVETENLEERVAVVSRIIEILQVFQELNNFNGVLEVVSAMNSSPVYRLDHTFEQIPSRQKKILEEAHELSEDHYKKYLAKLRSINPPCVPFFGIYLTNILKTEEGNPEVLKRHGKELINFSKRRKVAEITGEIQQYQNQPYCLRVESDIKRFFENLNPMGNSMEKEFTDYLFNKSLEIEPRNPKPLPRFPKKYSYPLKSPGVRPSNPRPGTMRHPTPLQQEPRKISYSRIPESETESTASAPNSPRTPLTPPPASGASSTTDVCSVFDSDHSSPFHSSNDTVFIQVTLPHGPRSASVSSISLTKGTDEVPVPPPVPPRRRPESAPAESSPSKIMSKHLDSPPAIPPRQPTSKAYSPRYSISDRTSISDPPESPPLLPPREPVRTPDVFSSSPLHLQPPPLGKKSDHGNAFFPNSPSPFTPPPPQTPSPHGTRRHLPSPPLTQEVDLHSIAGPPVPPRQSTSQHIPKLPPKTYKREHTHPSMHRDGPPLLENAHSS
- Protocol text: Inhibition of KRAS G12D mutant/SOS1 (unknown origin) interaction by TR-FRET assay

[
  {
    "Given smiles": "Cn1cnc(Cn2ccc3ccc(CNCc4[nH]c5ccccc5c4[C@H]4NC(=O)c5ccc(O)cc54)cc32)c1",
    "Tested system": "KRas/Son of Sevenless Homolog 1 (Homo sapiens, UniProt P01116+Q07889)",
    "IC50 (nM)": 450
  }
]
